- ASSAY_TARGET: T1, Pertussis toxin (PT) (Bordetella pertussis, UniProt P04977 35-269; P04978 28-226; P04979 29-227; P0A3R5 43-152; P04981 35-133)
- T1 construct: mature; also called purified PT; biotinylated PT
- RUN_DESCRIPTION: 35S-labelled, His-tag purified free peptide (TNT expressed) on biotinylated PT on streptavidin magnetic beads, scintillation counting (test 1)
MEASUREMENT_NAME: binding result

binder="gurmarin variant # 14 (seq # 194479) (peptide) MHHHHHHSGSSSGSGCVKKDELCTTASKSCCEPLECKWTNEHFGTCGSGSSGSS" result=binds
binder="gurmarin variant # 9 (seq # 194259) (peptide) MHHHHHHSGSSSGSGCVKKDELCARWDLVCCEPLECIYTSELYATCGSGSSGSS" result=binds
binder="gurmarin variant # 15 (seq # 194511) (peptide) MHHHHHHSGSSSGSGCVKKDELCSQSVPMCCEPLECKWFNENYGICGSGSSGSS" result=binds
binder="gurmarin variant # 12 (seq # 194297) (peptide) MHHHHHHSGSSSGSGCVKKDELCVFYFPNCCEPLECRWVNDNYGWCGSGSSGSS" result=binds
binder="gurmarin variant # 10 (seq # 194264) (peptide) MHHHHHHSGSSSGSGCVKKDELCELAVDECCEPLECFQMGHGFKRCGSGSSGSS" result=binds
binder="gurmarin variant # 16 (seq # 194533) (peptide) MHHHHHHSGSSSGSGCVKKDELCARWDLVCCEPLECIYTSELYATCGSGSSGSS" result=binds
binder="gurmarin variant # 11 (seq # 194328) (peptide) MHHHHHHSGSSSGSGCVKKDELCNWVTPMRCEPLECLGHGLGYAYCGSGSSGSS" result=binds
